- experiment.notes: Biodistribution in rats
- Format: in vivo, male rats
- condition.parameters: 2 min post-injection, i.v.
property.name: Gut (percent injected dose)

compound: CCC(=NO)C(C)(C)NCCCCNC(C)(C)C=NO [Compound VII]
meas.value: 12.1
--
compound: CC(=NO)C(C)NCCCCNC(C)C(C)=NO (centres unmarked) [Compound XIII]
meas.value: 11.4
--
compound: COC(=O)C(CCCNC(C)(C)C(C)=NO)NC(C)(C)C(C)=NO (centres unmarked) [Compound XVI]
meas.value: 6.3

A = CC(C)(C=NO)NCCCCNC(C)(C)C=NO [Compound VI]
B = CCC(=NO)C(C)(C)NCCCCNC(C)(C)C(C)=NO [Compound IX]
Query: # compare Gut for A vs B ; return the one with the smaller value Refer to your chosen entry by its label in the reply.
Result: A
(A: 8.6 percent injected dose, B: 13.8 percent injected dose)
